Taken from ChEMBL document CHEMBL3784944.

Biological target: Sodium/glucose cotransporter 2 (Homo sapiens)
Assay: Inhibition of human SGLT2 expressed in CHO-K1 cells assessed as reduction in [14C]AMG uptake after 120 mins by scintillation counting method
pEC50: −log10 of the molar value.
experimental readout: pEC50

O[C@@H]1[C@@H](O)[C@H](n2cc(Cc3ccc(C4CC4)cc3)c3c(Cl)cccc32)O[C@H](Cn2cc(C3CC3)nn2)[C@H]1O: 6.44
OC[C@H]1O[C@@H](n2cc(Cc3ccc(C4CC4)cc3)c3c(Cl)cccc32)[C@H](O)[C@@H](O)[C@@H]1O: 7.85

A. CC(=O)NC[C@H]1O[C@@H](n2cc(Cc3ccc(C4CC4)cc3)c3c(Cl)cccc32)[C@H](O)[C@@H](O)[C@@H]1O
B. O=C(NC[C@H]1O[C@@H](n2cc(Cc3ccc(C4CC4)cc3)c3c(Cl)cccc32)[C@H](O)[C@@H](O)[C@@H]1O)C(Cl)Cl
Two entries are listed, A and B . Which one carries the higher pEC50? Provide the label of your selected option as the answer. A

###

Assay: AUC (0 to infinity) in Sprague-Dawley rat at 1.1 mg/kg, iv administered via bolus injection measured at 2 to 5 mins post dose by LC-MS/MS analysis
Assay type: ADME, organism-based
Set-up: dose 1.1 mg/kg, route intravenous, time infinity
Conditions: in vivo
experimental readout: AUC(0-inf) (ng·h/mL)
I only need the number, in ng·h/mL, no unit after it.

Would you mind telling me what AUC(0-inf) value was observed for `CC(=O)NC[C@H]1O[C@@H](n2cc(Cc3ccc(C4CC4)cc3)c3c(Cl)cccc32)[C@H](O)[C@@H](O)[C@@H]1O` ? 996

###

Test: AUC (0 to infinity) in Sprague-Dawley rat at 1.1 mg/kg, po measured at 15 mins to 24 hrs post dose by LC-MS/MS analysis
Assay type: ADME, organism-based
Set-up: dose 1.1 mg/kg, time infinity, route oral
Conditions: in vivo
experimental readout: AUC(0-inf) (ng·h/mL)
Provide only the numeric value, understood in ng·h/mL.

Please give the measured AUC(0-inf) for this compound: `CC(=O)NC[C@H]1O[C@@H](n2cc(Cc3ccc(C4CC4)cc3)c3c(Cl)cccc32)[C@H](O)[C@@H](O)[C@@H]1O` 99

###

Molecular target: Sodium/glucose cotransporter 2 (Homo sapiens, UniProt P31639)
Sequence (P31639 whole entry): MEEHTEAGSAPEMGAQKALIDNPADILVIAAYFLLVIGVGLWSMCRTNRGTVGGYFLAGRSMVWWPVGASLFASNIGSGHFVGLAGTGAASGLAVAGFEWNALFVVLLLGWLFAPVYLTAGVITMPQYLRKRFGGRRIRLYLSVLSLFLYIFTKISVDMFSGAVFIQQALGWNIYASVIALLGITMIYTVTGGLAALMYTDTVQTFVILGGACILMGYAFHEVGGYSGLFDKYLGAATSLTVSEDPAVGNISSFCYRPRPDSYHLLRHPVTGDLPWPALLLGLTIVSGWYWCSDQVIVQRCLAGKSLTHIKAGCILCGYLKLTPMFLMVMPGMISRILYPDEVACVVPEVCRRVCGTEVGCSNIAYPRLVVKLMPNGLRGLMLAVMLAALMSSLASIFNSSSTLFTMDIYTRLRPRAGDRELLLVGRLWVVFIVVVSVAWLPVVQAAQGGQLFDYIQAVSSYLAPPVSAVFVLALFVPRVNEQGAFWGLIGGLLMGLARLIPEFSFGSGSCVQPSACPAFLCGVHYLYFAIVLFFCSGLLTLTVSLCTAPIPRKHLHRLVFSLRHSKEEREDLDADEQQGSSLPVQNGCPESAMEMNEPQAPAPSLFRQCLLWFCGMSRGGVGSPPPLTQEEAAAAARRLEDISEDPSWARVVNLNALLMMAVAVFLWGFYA
Assay: Inhibition of human SGLT2 expressed in CHO-K1 cells assessed as reduction in [14C]AMG uptake after 120 mins by scintillation counting method
experimental readout: EC50 (nM)

COc1ccc(NC(=S)NC[C@H]2O[C@@H](n3cc(Cc4ccc(C5CC5)cc4)c4c(Cl)cccc43)[C@H](O)[C@@H](O)[C@@H]2O)cc1: 485
O=C(O)CC(=O)NC[C@H]1O[C@@H](n2cc(Cc3ccc(C4CC4)cc3)c3c(Cl)cccc32)[C@H](O)[C@@H](O)[C@@H]1O: 3440
COC(=O)c1cn(C[C@H]2O[C@@H](n3cc(Cc4ccc(C5CC5)cc4)c4c(Cl)cccc43)[C@H](O)[C@@H](O)[C@@H]2O)nn1: 119

P. O=C(NC[C@H]1O[C@@H](n2cc(Cc3ccc(C4CC4)cc3)c3c(Cl)cccc32)[C@H](O)[C@@H](O)[C@@H]1O)c1ccc(CCl)cc1
Q. O=C(CCl)NC[C@H]1O[C@@H](n2cc(Cc3ccc(C4CC4)cc3)c3c(Cl)cccc32)[C@H](O)[C@@H](O)[C@@H]1O
R. O=C(Cc1cccs1)NC[C@H]1O[C@@H](n2cc(Cc3ccc(C4CC4)cc3)c3c(Cl)cccc32)[C@H](O)[C@@H](O)[C@@H]1O
S. COC(=O)CC(=O)NC[C@H]1O[C@@H](n2cc(Cc3ccc(C4CC4)cc3)c3c(Cl)cccc32)[C@H](O)[C@@H](O)[C@@H]1O
Ranking field: EC50; order: falling. Write the labels out in the order the request specifies. P, R, Q, S

###

Test: Clearance in Sprague-Dawley rat at 1.1 mg/kg, iv administered via bolus injection measured at 2 to 5 mins post dose by LC-MS/MS analysis
Assay type: ADME, organism-based
Settings: in vivo
experimental readout: clearance (mL/min/kg)
API: value field is a number in mL/min/kg; no unit string.

Given the entry `CC(=O)NC[C@H]1O[C@@H](n2cc(Cc3ccc(C4CC4)cc3)c3c(Cl)cccc32)[C@H](O)[C@@H](O)[C@@H]1O` , report its measured clearance. 18.8
